- Protocol: protein stability index of a GFP-peptide fusion (yeast GPS) (PSI 1-4); higher = more stable; sorted into four equal gates, so the index is relative within each strain
- Test Context: doa10∆
Metric Name: protein stability index
Respond using a number only.

Any idea what protein stability index was measured for SGNIQLDEIIEIARQMR [RPL12A] ?
3.07

What would you report for TRYMFQRDFRKHGAVHL [RPL21A] ?
2.42

What would you report for RTFRLNECVCTPYNADF [RPO31] ?
2.25

What would you report for YLIKLLGFEVKDQALIG [SIR2] ?
1.92

What would you report for KDRYINGDKKVDIYSLP [YMR129W/POM152] ?
3.15

What would you report for PGFDEFQLIDMKDKEIN [CSI1] ?
3.34

What would you report for ISTAKAWGALITTFVKR [YML103C/NUP188] ?
1.82

What would you report for FMKSVIRSREAFSYEQA [DIS3] ?
2.28

What would you report for IHFADVAHITTKSPAYP [RGR1] ?
2.42

What would you report for AQEDVPYLLPYILEAEA [QCR7] ?
2.02

What would you report for LNIGLGAVGLKDLTLCR [YCS4] ?
2.3

What would you report for IEDVTPVPSDSTRKKGG [RPS14B] ?
2.99

What would you report for RLYVKGKHLSYQRSKRV [RPL33A] ?
2.1

What would you report for IAGTFNVGKPDQSIASG [YOR098C/NUP1] ?
3.14

What would you report for EEKVLSTRLKKACKTAD [SRP68] ?
3.18

What would you report for RMAKYLNNTHVISSGPL [RPC53] ?
2.96

What would you report for LEALRQNYRLDGRSFDQ [RRP45] ?
2.43

What would you report for GLARKFHNMLQTLYTGD [SSN3] ?
2.91

What would you report for ITSLQDSSSQCIVDFTN [YMR129W/POM152] ?
2.67

What would you report for PTSDEPVPESAGKADTS [SRB4] ?
2.86

What would you report for ENLPGLSISVAAEPMDS [SNU114] ?
2.7

What would you report for HQGTPLGSHSSSQKDGN [REC8] ?
3.21

What would you report for SSPTLATGFGAHMANPL [PRE4] ?
3.26

What would you report for NFTCNRKILNFKKDLVI [SWI1] ?
2.66

What would you report for AEYAQLLAKRLSERKAE [RPS6A] ?
2.41

What would you report for RTMDDIKDSVREVGTKF [ECM29] ?
3.35

What would you report for FAVIYLCDIDEVSDFDE [DIB1] ?
1.46

What would you report for QPAQPRESRIVSTEGNV [RPL21A] ?
2.49

What would you report for EIIADWIWDMNVHGSLE [BRR2] ?
1.89

What would you report for NAISLQLKYDTSVQEKE [YIL149C/MLP2] ?
2.61
